assay: physchem; conditions: octanol/water
Description: Lipophilicity, log P of the compound
Exercise: for every item that follows, state its recorded logP.
Form rule: numeric answer, no unit written next to it.

Req: // fetch logP given entry Nc1cc(-c2ccccc2)ccc1Cn1cncc1CNc1ccc(Cl)c(-c2ccccc2N2CCOCC2)c1
Resp: 5.9

Req: // fetch logP given entry CC1CCN(CCOc2ccc(NCc3cncn3Cc3ccc(-c4ccccn4)cc3N)cc2-c2ccccc2)CC1
Resp: 5.1

Req: // fetch logP given entry Oc1cc(-c2ccccc2)ccc1Cn1cncc1CNc1ccc(Cl)c(-c2ccccc2)c1
Resp: 6.5

Req: // fetch logP given entry Nc1cc(-c2ccccc2)ccc1Cn1cncc1CNc1ccc(Cl)c(-c2ccccc2N2CCCCC2)c1
Resp: 4.7

Req: // fetch logP given entry Nc1ccccc1-c1ccc(Cn2cncc2CNc2ccc(-c3nc4ccccc4s3)c(-c3ccccc3)c2)cc1
Resp: 7.6

====

assay: physchem; conditions: octanol/water
Given measured logP, output yes if it is greater than or equal to 5 and no if not.

Req: Textbook exercise: given the entry Fc1cc(-c2ccccc2)ccc1Cn1cncc1CNc1ccc(F)c(-c2ccccc2)c1 , state whether its logP is greater than or equal to 5.
Resp: yes

Req: Textbook exercise: given the entry Cc1cc(NCc2cncn2Cc2ccc(F)cc2F)ccc1F , state whether its logP is greater than or equal to 5.
Resp: no

Req: Textbook exercise: given the entry c1ccc(-c2ccc(Cn3cncc3CNc3ccc(-c4nc5ccccc5s4)c(-c4ccccc4)c3)cc2)cc1 , state whether its logP is greater than or equal to 5.
Resp: yes

Req: Textbook exercise: given the entry Nc1ccccc1Cn1cncc1CNc1ccc(F)c(-c2ccccc2)c1 , state whether its logP is greater than or equal to 5.
Resp: no

Req: Textbook exercise: given the entry Clc1ccc(NCc2cncn2Cc2ccc(-c3ccccc3)cc2)cc1-c1ccncc1 , state whether its logP is greater than or equal to 5.
Resp: yes

Req: Textbook exercise: given the entry COc1cc(-c2ccccc2)ccc1Cn1cncc1CNc1ccc(Cl)c(-c2ccccc2)c1 , state whether its logP is greater than or equal to 5.
Resp: yes

Req: Textbook exercise: given the entry Nc1cc(-c2ccccc2)ccc1Cn1cncc1CNc1ccc(F)c(F)c1 , state whether its logP is greater than or equal to 5.
Resp: no

Req: Textbook exercise: given the entry Clc1ccc(NCc2cncn2Cc2ccc(-c3ccccc3)cc2Cl)cc1 , state whether its logP is greater than or equal to 5.
Resp: yes

Req: Textbook exercise: given the entry Nc1cc(-c2ccccc2)ccc1Cn1cncc1CNc1ccc(Cl)c(-c2ccccc2N2CCCC2)c1 , state whether its logP is greater than or equal to 5.
Resp: yes

Req: Textbook exercise: given the entry Clc1ccc(NCc2cncn2Cc2cccc3cc[nH]c23)cc1-c1ccccc1 , state whether its logP is greater than or equal to 5.
Resp: yes

Req: Textbook exercise: given the entry Cc1ccc(NCc2cncn2Cc2ccc(-c3ccccc3)cc2)cc1-c1c(F)cccc1F , state whether its logP is greater than or equal to 5.
Resp: yes

Req: Textbook exercise: given the entry Cc1cccc(-c2ccc(Cn3cncc3CNc3ccc(-c4nc5ccccc5s4)c(-c4ccccc4)c3)cc2)c1 , state whether its logP is greater than or equal to 5.
Resp: yes

Req: Textbook exercise: given the entry Fc1ccc(NCc2cncn2Cc2cccc3cc[nH]c23)cc1-c1ccccc1 , state whether its logP is greater than or equal to 5.
Resp: no

Req: Textbook exercise: given the entry Nc1cc(-c2ccccc2)ccc1Cn1cncc1CNc1ccc(F)cc1 , state whether its logP is greater than or equal to 5.
Resp: no

Req: Textbook exercise: given the entry COc1ccc(Cn2cncc2CNc2ccc(F)c(-c3ccccc3)c2)c(N)c1 , state whether its logP is greater than or equal to 5.
Resp: no

Req: Textbook exercise: given the entry Cc1ncc(CNc2ccc(F)c(Cl)c2)n1Cc1ccc(-c2ccccc2)cc1N , state whether its logP is greater than or equal to 5.
Resp: no

Req: Textbook exercise: given the entry Clc1ccc(-c2ccc(Cn3cncc3CNc3ccc(-c4nc5ccccc5s4)c(-c4ccccc4)c3)cc2)cc1 , state whether its logP is greater than or equal to 5.
Resp: yes

Req: Textbook exercise: given the entry Clc1ccc(NCc2cncn2CC2CCNCC2)cc1-c1ccccc1 , state whether its logP is greater than or equal to 5.
Resp: no

Req: Textbook exercise: given the entry c1ccc(-c2ccc(Cn3cncc3CNc3ccc(OCCN4CCCCC4)c(-c4ccccc4)c3)cc2)cc1 , state whether its logP is greater than or equal to 5.
Resp: yes
